Each recorded value in this set is attributed to the kinase profiling compilation of Christmann-Franck et al. (2016).

target: JAK3 JH1 catalytic (human); experiment: KINOMEscan competition binding; conditions: compound 10.0 µM
MEASUREMENT LABEL: kinase still bound, per cent of control (%)
# unit: % | format: bare number

The cases that follow already have their kinase still bound, per cent of control on record.
| STRUCTURE SMILES STRING | UNIT NAME | kinase still bound, per cent of control |
| --- | --- | --- |
| O=c1cc(N2CCOCC2)oc2c(-c3cccc4c3sc3ccccc34)cccc12 | % | 81 |
| CCN1CCN(C(=O)Cc2ccc(Nc3ncc(F)c(Nc4ccc(C(=O)Nc5ccccc5Cl)cc4)n3)cc2)CC1 | % | 3.7 |

Attention now turns to another entry.
// kinase still bound, per cent of control lookup, compound = CN(C)C/C=C/C(=O)Nc1ccc(C(=O)Nc2cccc(Nc3nccc(-c4cccnc4)n3)c2)cc1 , result: 10

----------
tested on: RET (human), P07949 [V804M]; assay: KINOMEscan competition binding; details: compound 10.0 µM
Sequence (P07949 whole entry V804M, looked up): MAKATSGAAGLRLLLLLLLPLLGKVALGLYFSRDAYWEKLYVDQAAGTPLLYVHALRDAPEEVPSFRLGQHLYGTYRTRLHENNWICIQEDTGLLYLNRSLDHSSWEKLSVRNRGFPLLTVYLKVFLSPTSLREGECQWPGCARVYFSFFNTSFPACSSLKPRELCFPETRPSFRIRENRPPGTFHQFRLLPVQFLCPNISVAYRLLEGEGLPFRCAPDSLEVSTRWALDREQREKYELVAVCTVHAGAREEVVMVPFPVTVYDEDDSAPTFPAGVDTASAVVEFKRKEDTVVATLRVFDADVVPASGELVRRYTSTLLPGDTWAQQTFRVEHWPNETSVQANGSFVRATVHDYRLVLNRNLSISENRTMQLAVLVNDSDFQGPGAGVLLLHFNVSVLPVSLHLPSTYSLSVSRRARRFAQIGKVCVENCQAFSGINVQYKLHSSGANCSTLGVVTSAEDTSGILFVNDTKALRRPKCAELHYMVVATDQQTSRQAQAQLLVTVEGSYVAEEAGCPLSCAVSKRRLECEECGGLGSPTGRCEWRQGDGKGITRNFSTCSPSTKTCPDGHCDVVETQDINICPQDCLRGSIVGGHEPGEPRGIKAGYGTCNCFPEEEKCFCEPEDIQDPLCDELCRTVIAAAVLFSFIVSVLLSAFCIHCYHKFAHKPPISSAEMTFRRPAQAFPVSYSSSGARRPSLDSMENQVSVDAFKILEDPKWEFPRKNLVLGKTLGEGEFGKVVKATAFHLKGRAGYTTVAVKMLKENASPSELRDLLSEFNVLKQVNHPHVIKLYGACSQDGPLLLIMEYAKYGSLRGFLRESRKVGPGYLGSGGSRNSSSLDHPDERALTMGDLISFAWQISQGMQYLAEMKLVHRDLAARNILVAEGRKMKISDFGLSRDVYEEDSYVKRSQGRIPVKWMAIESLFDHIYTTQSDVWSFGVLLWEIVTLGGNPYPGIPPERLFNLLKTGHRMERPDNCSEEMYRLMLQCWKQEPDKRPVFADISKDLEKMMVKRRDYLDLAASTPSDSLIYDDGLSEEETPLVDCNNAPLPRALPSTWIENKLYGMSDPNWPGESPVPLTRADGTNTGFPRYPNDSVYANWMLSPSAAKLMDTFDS
Listed here: items and their measured kinase still bound, per cent of control.
Note: unit % is implicit; provide only the numeric part.

| STRUCTURE SMILES STRING | TEST SYSTEM | MEASUREMENT LABEL | NUMBER |
| --- | --- | --- | --- |
| Cc1ccc(C(=O)Nc2cccc(C(F)(F)F)c2)cc1Nc1cncc(C(N)=O)c1 | RET (human), P07949 [V804M] | kinase still bound, per cent of control | 100 |
| CCCS(=O)(=O)Nc1ccc(F)c(C(=O)c2c[nH]c3ncc(-c4ccc(Cl)cc4)cc23)c1F | RET (human), P07949 [V804M] | kinase still bound, per cent of control | 91 |
| N#Cc1cc(-c2ccnc(Nc3ccc(-n4cnc(-c5cccnc5)n4)cc3)n2)cc(N2CCOCC2)c1 | RET (human), P07949 [V804M] | kinase still bound, per cent of control | 100 |
| Cc1ccc2nc(NCCN)c3ncc(C)n3c2c1 | RET (human), P07949 [V804M] | kinase still bound, per cent of control | 100 |
| C=CC(=O)Nc1ccc(CN(C(=O)Nc2c(Cl)c(OC)cc(OC)c2Cl)c2cc(Nc3ccc(N4CCN(C)CC4)cc3)ncn2)cc1 | RET (human), P07949 [V804M] | kinase still bound, per cent of control | 100 |

kinase still bound, per cent of control recorded for this molecule, CNC(=O)c1ccc(Nc2cc(Nc3ccccc3S(=O)(=O)C(C)C)c3cc[nH]c3n2)nc1 , is 1.2

Measured kinase still bound, per cent of control, Nc1ccc(-c2ccc3ncc4ccc(=O)n(-c5cccc(C(F)(F)F)c5)c4c3c2)cn1 : 100

Sure, the documented kinase still bound, per cent of control for CCC(=O)N1CCN(c2ccc(-n3c(=O)ccc4cnc5ccc(-c6cnc7ccccc7c6)cc5c43)cc2C(F)(F)F)CC1 is 69

Briefly, kinase still bound, per cent of control measured for CCN(CCO)CCCOc1ccc2c(Nc3cc(CC(=O)Nc4cccc(F)c4)[nH]n3)ncnc2c1 : 5.5

----------
biological target: TNNI3K (human) (UniProt Q59H18); assay: KINOMEscan competition binding; conditions: compound 10.0 µM
Sequence (Q59H18 whole entry, looked up): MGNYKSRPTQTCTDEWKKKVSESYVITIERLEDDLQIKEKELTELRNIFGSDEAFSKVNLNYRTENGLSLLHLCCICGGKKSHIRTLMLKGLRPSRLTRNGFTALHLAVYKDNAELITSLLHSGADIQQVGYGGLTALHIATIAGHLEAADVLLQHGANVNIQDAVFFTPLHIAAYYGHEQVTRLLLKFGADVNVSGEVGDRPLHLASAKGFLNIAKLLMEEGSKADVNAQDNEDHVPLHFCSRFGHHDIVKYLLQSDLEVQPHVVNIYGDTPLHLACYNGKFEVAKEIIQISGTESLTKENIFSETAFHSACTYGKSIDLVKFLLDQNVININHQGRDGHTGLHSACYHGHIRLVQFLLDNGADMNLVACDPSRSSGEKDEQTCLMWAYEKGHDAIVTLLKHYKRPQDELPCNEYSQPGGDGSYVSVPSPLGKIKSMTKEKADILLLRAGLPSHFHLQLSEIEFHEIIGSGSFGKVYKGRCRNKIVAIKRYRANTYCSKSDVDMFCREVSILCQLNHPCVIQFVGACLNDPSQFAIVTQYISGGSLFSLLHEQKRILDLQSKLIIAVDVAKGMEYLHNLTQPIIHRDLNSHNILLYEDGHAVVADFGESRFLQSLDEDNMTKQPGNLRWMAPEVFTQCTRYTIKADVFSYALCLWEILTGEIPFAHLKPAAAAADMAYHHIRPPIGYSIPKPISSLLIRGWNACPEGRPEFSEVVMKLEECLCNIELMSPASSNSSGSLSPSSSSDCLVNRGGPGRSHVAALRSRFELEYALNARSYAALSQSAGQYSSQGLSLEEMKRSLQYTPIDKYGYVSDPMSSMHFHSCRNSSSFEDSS
MEASUREMENT LABEL: kinase still bound, per cent of control (%)
Enter your answer as a number in %; do not include the unit.

| STRUCTURE SMILES STRING | kinase still bound, per cent of control / % |
| --- | --- |
| CN(C)C/C=C/C(=O)Nc1ccc(C(=O)Nc2cccc(Nc3nccc(-c4cccnc4)n3)c2)cc1 | 100 |
| COc1cc2ncnc(-n3nc(-c4ccccn4)nc3N)c2cc1OC | 80 |

// kinase still bound, per cent of control (TNNI3K (human) (UniProt Q59H18)) for C=CC(=O)Nc1ccc(CN(C(=O)Nc2c(Cl)c(OC)cc(OC)c2Cl)c2cc(Nc3ccc(N4CCN(C)CC4)cc3)ncn2)cc1 = 100

Record NC(=O)Nc1cc(-c2cccc(F)c2)sc1C(=O)N[C@@H]1CCCNC1 has TNNI3K (human) (UniProt Q59H18) kinase still bound, per cent of control equal to 7.3

O=C1NC(=O)/C(=C/c2ccc3nccc(-c4ccncc4)c3c2)S1 on TNNI3K (human) (UniProt Q59H18) gives kinase still bound, per cent of control = 79

# N#CCNC(=O)c1ccc(-c2ccnc(Nc3ccc(N4CCOCC4)cc3)n2)cc1 with TNNI3K (human) (UniProt Q59H18): kinase still bound, per cent of control is 100

The compound CS(=O)(=O)N1CCN(Cc2cc3nc(-c4cccc5[nH]ncc45)nc(N4CCOCC4)c3s2)CC1 , tested on TNNI3K (human) (UniProt Q59H18), showed kinase still bound, per cent of control of 100

With TNNI3K (human) (UniProt Q59H18) as the test system, COc1ccc(N(C(=O)Oc2c(C)cccc2C)c2ccnc(Nc3ccc(N4CCN(C)CC4)cc3)n2)c(OC)c1 showed kinase still bound, per cent of control of 0

Observed kinase still bound, per cent of control, TNNI3K (human) (UniProt Q59H18), CCN(CC)CCCCNc1ncc2cc(-c3cc(OC)cc(OC)c3)c(NC(=O)NC(C)(C)C)nc2n1 : 100
